Data origin: patent US5436229A

molecular target: factor Xa (Homo sapiens); construct: Human factors X, Xa, IXa, XIa, and XIIa are purchased from Enzyme Research Laboratories; purchased Enzyme Research Laboratories, South Bend, Ind; assay: Serine protease inhibition (Kass), factor Xa; type: biochemical
Sequence (P00742 235-488 limits assumed): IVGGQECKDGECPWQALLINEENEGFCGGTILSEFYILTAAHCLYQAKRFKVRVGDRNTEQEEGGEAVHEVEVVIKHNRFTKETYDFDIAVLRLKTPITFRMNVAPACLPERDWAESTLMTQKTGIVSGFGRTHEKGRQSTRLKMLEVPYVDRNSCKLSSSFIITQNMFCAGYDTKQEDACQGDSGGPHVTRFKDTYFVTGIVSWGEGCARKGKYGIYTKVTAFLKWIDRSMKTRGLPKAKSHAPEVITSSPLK
Sequence (P00742 41-179 partner limits assumed): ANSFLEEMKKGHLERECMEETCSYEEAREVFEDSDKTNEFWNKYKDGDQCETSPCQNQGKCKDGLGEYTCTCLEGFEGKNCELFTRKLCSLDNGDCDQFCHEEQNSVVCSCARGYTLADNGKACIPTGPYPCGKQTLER
Non-standard residues stand in square brackets, D forms with d. Residues, ends and D or L forms follow the SMILES beside them. dNMeCha = CN[C@H](CC1CCCCC1)C(=O)O
Kass Xa overview

| compound | Kass Xa, L/mol × 10^6 |
| --- | --- |
| Cl.N=C(N)NCCC[C@@H](C=O)NC(=O)[C@@H]1CCCN1C(=O)[C@@H](CC1CCCCC1)NC(=O)c1cc2ccccc2cn1 [Example 50] | 0.83 |
| CCS(=O)(=O)N[C@H](CC1CCCCC1)C(=O)N1CCC[C@H]1C(=O)N[C@H](C=O)CCCNC(=N)N.Cl [Example 65] | 20 |
| Cl.Cn1c(C(=O)N[C@H](CC2CCCCC2)C(=O)N2CCC[C@H]2C(=O)N[C@H](C=O)CCCNC(=N)N)cc2ccccc21 [Example 49] | 4.6 |
| Cc1noc(C)c1S(=O)(=O)N[C@H](Cc1ccccc1)C(=O)N1CCC[C@H]1C(=O)N[C@H](C=O)CCCNC(=N)N.Cl [Example 60] | 11 |
| CS(=O)(=O)N[C@H](Cc1ccccc1)C(=O)N1CCC[C@H]1C(=O)N[C@H](C=O)CCCNC(=N)N.Cl [Example 51] | 2.4 |
| CCC[C@](Cc1ccccc1)(NC(=O)OCC)C(=O)N1CCC[C@H]1C(=O)N[C@H](C=O)CCCNC(=N)N.Cl [Example 37] | 0.030 |
| Cl.N=C(N)NCCC[C@@H](C=O)NC(=O)[C@@H]1CCCN1C(=O)[C@@H](Cc1ccccc1)NC(=O)C1CCCCC1 [Example 71] | 0.064 |
| C[C@@]1(C(=O)N[C@H](C=O)CCCNC(=N)N)CCCN1C(=O)[C@H](Cc1ccccc1)NS(C)(=O)=O.Cl [Example 44] | 0.033 |
| COCC(=O)N[C@H](Cc1ccccc1)C(=O)N1CCC[C@H]1C(=O)N[C@H](C=O)CCCNC(=N)N.Cl [Example 68] | 0.29 |
| CCCS(=O)(=O)N[C@H](Cc1ccccc1)C(=O)N1CCC[C@H]1C(=O)N[C@H](C=O)CCCNC(=N)N.Cl [Example 53] | 13 |
| CCCC[C@](Cc1ccccc1)(NC(=O)OCC)C(=O)N1CCC[C@H]1C(=O)N[C@H](C=O)CCCNC(=N)N.Cl [Example 39] | 0.095 |
| Cl.N=C(N)NCCC[C@@H](C=O)NC(=O)[C@@H]1CCCN1C(=O)[C@@H](Cc1ccccc1)NC(=O)C(F)(F)F [Example 69] | 0.033 |
| CC(C)S(=O)(=O)N[C@H](Cc1ccccc1)C(=O)N1CCC[C@H]1C(=O)N[C@H](C=O)CCCNC(=N)N.Cl [Example 55] | 6.0 |
| Cl.Cn1c(C(=O)NC(C)(Cc2ccccc2)C(=O)N2CCC[C@H]2C(=O)N[C@H](C=O)CCCNC(=N)N)cc2ccccc21 (stereo partly drawn) [Example 34] | 0.002 |
| CN[C@H](CC1CCCCC1)C(=O)N1CCC[C@H]1C(=O)N[C@H](C=O)CCCNC(=N)N.Cl [Example 75] (H-[dNMeCha]-Pro-Arg-aldehyde) | 5.6 |
